Tested on: UO-31
experimental_details: Antiproliferative activity against human UO31 cells assessed as growth inhibition after 48 hrs by sulforhodamine B assay
Format: functional
protocol_conditions: UO-31, 48 h
parameter_measured: GI50 (µM)
State the answer as a number, implicitly in µM.

The molecule `COC(=O)[C@]12CC[C@@H](C)[C@H](C)[C@H]1C1=CC[C@@H]3[C@@]4(C)C[C@@H](OC(=O)c5ccco5)[C@H](O)[C@@](C)(CO)[C@@H]4[C@H](O)C[C@@]3(C)[C@]1(C)CC2` , tested on UO-31, showed GI50 of 2.3

The molecule `COC(=O)[C@]12CC[C@@H](C)[C@H](C)[C@H]1C1=CC[C@@H]3[C@@]4(C)C/C(=N\O)[C@H](O)[C@@]5(C)COC(=C45)C[C@@]3(C)[C@]1(C)CC2` , tested on UO-31, showed GI50 of 6.6

The molecule `COC(=O)[C@]12CC[C@@H](C)[C@H](C)[C@H]1C1=CC[C@@H]3[C@@]4(C)C=C(O)C(=O)[C@@]5(C)COC(=C54)C[C@@]3(C)[C@]1(C)CC2` , tested on UO-31, showed GI50 of 8.9

The molecule `COC(=O)[C@]12CC[C@@H](C)[C@H](C)[C@H]1C1=CC[C@@H]3[C@@]4(C)C[C@@H](OC(C)=O)[C@H](O)[C@@](C)(CO)[C@@H]4[C@H](O)C[C@@]3(C)[C@]1(C)CC2` , tested on UO-31, showed GI50 of 11

###

Test system: UO-31
experimental_details: Antiproliferative activity against human UO31 cells assessed as growth inhibition after 48 hrs by sulforhodamine B assay
Type: functional
protocol_conditions: UO-31, 48 h
parameter_measured: GI50 (µM)
State the answer as a number, implicitly in µM.

In plain terms, `COC(=O)[C@]12CC[C@@H](C)[C@H](C)[C@H]1C1=CC[C@@H]3[C@@]4(C)CC(=O)[C@H](O)[C@@](C)(CO)[C@@H]4C(=O)C[C@@]3(C)[C@]1(C)CC2` has a documented GI50 of 10

In plain terms, `COC(=O)[C@]12CC[C@@H](C)[C@H](C)[C@H]1C1=CC[C@@H]3[C@@]4(C)C[C@@H](O)[C@H](O)[C@@](C)(CO)[C@@H]4[C@H](O)C[C@@]3(C)[C@]1(C)CC2` has a documented GI50 of 12.9

In plain terms, `COC(=O)[C@]12CC[C@@H](C)[C@H](C)[C@H]1C1=CC[C@@H]3[C@@]4(C)C[C@@H](O)[C@H](O)[C@@](C)(CO)C4=CC[C@@]3(C)[C@]1(C)CC2` has a documented GI50 of 17

###

Would you mind telling me the reported GI50 of each entry?
Test system: UO-31
experimental_details: Antiproliferative activity against human UO31 cells assessed as growth inhibition after 48 hrs by sulforhodamine B assay
Assay type: functional
protocol_conditions: UO-31, 48 h
State the answer as a number, implicitly in nM.

In plain terms, `COC(=O)[C@]12CC[C@@H](C)[C@H](C)[C@H]1C1=CC[C@@H]3[C@@]4(C)C=C(O)C(=O)C(C)=C4CC[C@@]3(C)[C@]1(C)CC2` has a documented GI50 of 12000

In plain terms, `COC(=O)[C@]12CC[C@@H](C)[C@H](C)[C@H]1C1=CC[C@@H]3[C@@]4(C)CC(=O)[C@H](OC(=O)c5ccco5)[C@@]5(C)COC(=C45)C[C@@]3(C)[C@]1(C)CC2` has a documented GI50 of 1700

In plain terms, `COC(=O)[C@]12CC[C@@H](C)[C@H](C)[C@H]1C1=CC[C@@H]3[C@@]4(C)C[C@@H](OC(C)=O)[C@H](OC(C)=O)[C@@](C)(COC(C)=O)[C@@H]4[C@H](O)C[C@@]3(C)[C@]1(C)CC2` has a documented GI50 of 1700

Entry source: ChEMBL document CHEMBL4334460
